Test system: Spodoptera litura
ASSAY_METHOD_TEXT: Antifeedant activity in Spodoptera litura third-instar larvae assessed as increase in feeding deterrence after 24 hrs by leaf disk method
Format: functional
ASSAY_METRIC: ED50 (microg/cm2)
Give the value in microg/cm2 but do not write microg/cm2 after it.

C[C@@H]1C[C@H]([C@H](O)C(C)(C)O)O[C@H]2OC(=O)[C@@]3(C)[C@@H]4CC[C@H]5C(C)(C)C(=O)C=C[C@@]56C[C@@]46CC[C@]3(C)[C@H]21 :: 12.239

Moving on to another compound below.
State ED50 (Spodoptera litura) of C/C=C(\C)C(=O)O[C@H]1C[C@@H](OC(C)=O)[C@@]2(C(=O)OC)CO[C@H]3[C@@H](O)[C@@](C)([C@]45O[C@@]4(C)[C@H]4C[C@@H]5O[C@@H]5OC=C[C@@]54O)[C@H]4[C@]1(CO[C@]4(O)C(=O)OC)[C@@H]32 .
1.8
